# Measurement Protocol: Bioavailability in Sprague-Dawley rat at 3 mg/5 mL/kg, po
# Format: ADME, organism-based
# Protocol Conditions: in vivo
Would you kindly list bioavailability for each of these molecules?
Numbers only, in %.

Previously resolved entries follow.
- Smiles Data: "CC(C)(C)Cn1c(CN2C(=O)CC3(CCNCC3)C2=O)cc2cnc(C#N)nc21"
  Recorded Metric: "bioavailability"
  Observed: 98
- Smiles Data: "COc1ccc2c(c1)C1(CCNCC1)C(=O)N2Cc1cc2cnc(C#N)nc2n1CC(C)(C)C"
  Recorded Metric: "bioavailability"
  Observed: 29

Consider `CC(C)(C)Cn1c(CN2C(=O)C3(CCNCC3)c3cc(F)ccc32)cc2cnc(C#N)nc21` . Its measured bioavailability is 36

* * *

Would you kindly list pIC50 for each of these compounds?
# Tested On: UniProtKB P43235
# Sequence (P43235 whole entry): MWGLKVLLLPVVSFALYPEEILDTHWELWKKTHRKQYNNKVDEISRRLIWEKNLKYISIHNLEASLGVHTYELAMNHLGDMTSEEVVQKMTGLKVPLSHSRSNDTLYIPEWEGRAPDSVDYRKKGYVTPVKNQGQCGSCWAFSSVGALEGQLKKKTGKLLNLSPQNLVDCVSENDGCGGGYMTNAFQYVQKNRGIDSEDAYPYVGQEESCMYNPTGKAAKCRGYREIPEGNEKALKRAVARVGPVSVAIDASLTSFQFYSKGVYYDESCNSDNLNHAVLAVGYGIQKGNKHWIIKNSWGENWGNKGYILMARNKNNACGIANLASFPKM
# Measurement Protocol: Inhibition of human recombinant cathepsin K by fluorescence assay
pIC50: −log10 of the molar value.

Previously resolved entries follow.
- Smiles Data: "COc1ccc2c(c1)C1(CCNCC1)C(=O)N2Cc1cc2cnc(C#N)nc2n1CC(C)(C)C"
  pIC50: "> 9.00"
- Smiles Data: "CC(C)(C)Cn1c(CN2C(=O)NC3(CCNCC3)C2=O)cc2cnc(C#N)nc21"
  pIC50: "> 9.00"
- Smiles Data: "CC(C)(C)Cn1c(CN2CCC3(CC2)NC(=O)NC3=O)cc2cnc(C#N)nc21"
  pIC50: "> 9.00"

Next compound, pIC50 to be filled in.
Consider `CCCN1C(=O)NC2(CCN(Cc3cc4cnc(C#N)nc4n3CC(C)(C)C)CC2)C1=O` . Its measured pIC50 is > 9.00

* * *

Would you kindly list clearance for each of these compounds?
# Measurement Protocol: Plasma clearance in Sprague-Dawley rat at 4 umol/mL/kg, iv
# Format: ADME, organism-based
Answers are plain numbers, in mL/min/kg.

Previously resolved entries follow.
- Smiles Data: "CC(C)(C)Cn1c(CN2C(=O)NC3(CCNCC3)C2=O)cc2cnc(C#N)nc21"
  clearance (mL/min/kg): 245
- Smiles Data: "CC(C)(C)Cn1c(CN2CCC3(CC2)NC(=O)NC3=O)cc2cnc(C#N)nc21"
  clearance (mL/min/kg): 78.3
- Smiles Data: "CCCN1CCC2(CC1)NC(=O)N(Cc1cc3cnc(C#N)nc3n1CC(C)(C)C)C2=O"
  clearance (mL/min/kg): 85

Count: 2. Required value per item: clearance.
1. CCCN1C(=O)NC2(CCN(Cc3cc4cnc(C#N)nc4n3CC(C)(C)C)CC2)C1=O
2. CN1C(=O)NC2(CCN(Cc3cc4cnc(C#N)nc4n3CC(C)(C)C)CC2)C1=O

1: 45; 2: 35

* * *

# Tested On: Cathepsin K (Rattus norvegicus)
# Sequence (O35186 whole entry): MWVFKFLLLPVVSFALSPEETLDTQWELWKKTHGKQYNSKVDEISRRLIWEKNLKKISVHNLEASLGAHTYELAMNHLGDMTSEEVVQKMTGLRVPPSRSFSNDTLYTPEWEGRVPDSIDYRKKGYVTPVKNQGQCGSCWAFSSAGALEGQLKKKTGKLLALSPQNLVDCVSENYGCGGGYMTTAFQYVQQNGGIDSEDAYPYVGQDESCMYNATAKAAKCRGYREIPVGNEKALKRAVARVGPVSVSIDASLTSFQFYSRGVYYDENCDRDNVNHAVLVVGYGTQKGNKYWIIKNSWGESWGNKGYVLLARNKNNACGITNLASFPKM
# Measurement Protocol: Inhibition of rat recombinant cathepsin K expressed in Sf21 cells by fluorescence assay
Would you kindly list pIC50 for each of these compounds?
Answers are plain numbers, as −log10 of the molar value.

- Smiles Data: "COc1ccc2c(c1)C1(CCNCC1)C(=O)N2Cc1cc2cnc(C#N)nc2n1CC(C)(C)C"
  Tested On: "Cathepsin K (Rattus norvegicus)"
  pIC50: 7.36
- Smiles Data: "CC(C)(C)Cn1c(CN2C(=O)CC3(CCNCC3)C2=O)cc2cnc(C#N)nc21"
  Tested On: "Cathepsin K (Rattus norvegicus)"
  pIC50: 7.52
- Smiles Data: "CCCN1CCC2(CC1)NC(=O)N(Cc1cc3cnc(C#N)nc3n1CC(C)(C)C)C2=O"
  Tested On: "Cathepsin K (Rattus norvegicus)"
  pIC50: 7.57
- Smiles Data: "CN1C(=O)NC2(CCN(Cc3cc4cnc(C#N)nc4n3CC(C)(C)C)CC2)C1=O"
  Tested On: "Cathepsin K (Rattus norvegicus)"
  pIC50: 7.92
- Smiles Data: "CC(C)(C)Cn1c(CN2C(=O)C3(CCNCC3)c3cc(F)ccc32)cc2cnc(C#N)nc21"
  Tested On: "Cathepsin K (Rattus norvegicus)"
  pIC50: 7.11

Next compound, pIC50 to be filled in.
Consider `CC(C)(C)Cn1c(CN2C(=O)NC3(CCNCC3)C2=O)cc2cnc(C#N)nc21` . Its measured pIC50 is 7.12

* * *

# Measurement Protocol: Plasma clearance in Sprague-Dawley rat at 1 mg/mL/kg, iv
# Assay type: ADME, organism-based
Recorded Metric: clearance (mL/min/kg)
Numbers only, in mL/min/kg.

Previously resolved entries follow.
- Smiles Data: "CC(C)(C)Cn1c(CN2C(=O)CC3(CCNCC3)C2=O)cc2cnc(C#N)nc21"
  clearance (mL/min/kg): 238
- Smiles Data: "COc1ccc2c(c1)C1(CCNCC1)C(=O)N2Cc1cc2cnc(C#N)nc2n1CC(C)(C)C"
  clearance (mL/min/kg): 182

Consider `CC(C)(C)Cn1c(CN2C(=O)C3(CCNCC3)c3cc(F)ccc32)cc2cnc(C#N)nc21` . Its measured clearance is 132

* * *

# Measurement Protocol: Volume of distribution at steady state in Sprague-Dawley rat at 4 umol/mL/kg, iv
# Assay type: ADME, organism-based
# Protocol Conditions: in vivo, read-out: Vdss
Response field label: string, one of yes (Vd strictly below 7 L/kg) or no.

Given `CN1C(=O)NC2(CCN(Cc3cc4cnc(C#N)nc4n3CC(C)(C)C)CC2)C1=O` , is recorded Vd strictly lower than 7 L/kg?
yes

* * *

# Measurement Protocol: Drug level in Sprague-Dawley rat serum at 100 mg/kg/day, po for 11 days measured on 25 hrs after final administration
# Type: ADME, organism-based
# Set-up: route oral
# Protocol Conditions: read-out: Drug uptake
Response field label: string, one of Fulfilled (concentration at 25 h strictly below 500 nM) or Not fulfilled.

Solved entries:
- Smiles Data: "CC(C)(C)Cn1c(CN2C(=O)CC3(CCNCC3)C2=O)cc2cnc(C#N)nc21"
  Class Label: "Not fulfilled"
- Smiles Data: "CC(C)(C)Cn1c(CN2CCC3(CC2)NC(=O)NC3=O)cc2cnc(C#N)nc21"
  Class Label: "Not fulfilled"
- Smiles Data: "CN1C(=O)NC2(CCN(Cc3cc4cnc(C#N)nc4n3CC(C)(C)C)CC2)C1=O"
  Class Label: "Fulfilled"

Given `CCCN1CCC2(CC1)NC(=O)N(Cc1cc3cnc(C#N)nc3n1CC(C)(C)C)C2=O` , is recorded concentration at 25 h strictly lower than 500 nM?
Fulfilled

Given `CCCN1C(=O)NC2(CCN(Cc3cc4cnc(C#N)nc4n3CC(C)(C)C)CC2)C1=O` , is recorded concentration at 25 h strictly lower than 500 nM?
Not fulfilled

Given `COc1ccc2c(c1)C1(CCNCC1)C(=O)N2Cc1cc2cnc(C#N)nc2n1CC(C)(C)C` , is recorded concentration at 25 h strictly lower than 500 nM?
Fulfilled

Given `CC(C)(C)Cn1c(CN2C(=O)C3(CCNCC3)c3cc(F)ccc32)cc2cnc(C#N)nc21` , is recorded concentration at 25 h strictly lower than 500 nM?
Not fulfilled

* * *

# Measurement Protocol: Volume of distribution at steady state in Sprague-Dawley rat at 1 mg/mL/kg, iv
# Type: ADME, organism-based
# Protocol Conditions: in vivo, read-out: Vdss
Recorded Metric: Vd (L/kg)
Numbers only, in L/kg.

Previously resolved entries follow.
- Smiles Data: "CC(C)(C)Cn1c(CN2C(=O)C3(CCNCC3)c3cc(F)ccc32)cc2cnc(C#N)nc21"
  Observed: 78.4
- Smiles Data: "COc1ccc2c(c1)C1(CCNCC1)C(=O)N2Cc1cc2cnc(C#N)nc2n1CC(C)(C)C"
  Observed: 73.6

Consider `CC(C)(C)Cn1c(CN2C(=O)CC3(CCNCC3)C2=O)cc2cnc(C#N)nc21` . Its measured Vd is 97.2

* * *

# Tested On: Procathepsin L (Homo sapiens, UniProt P07711)
# Sequence (P07711 whole entry): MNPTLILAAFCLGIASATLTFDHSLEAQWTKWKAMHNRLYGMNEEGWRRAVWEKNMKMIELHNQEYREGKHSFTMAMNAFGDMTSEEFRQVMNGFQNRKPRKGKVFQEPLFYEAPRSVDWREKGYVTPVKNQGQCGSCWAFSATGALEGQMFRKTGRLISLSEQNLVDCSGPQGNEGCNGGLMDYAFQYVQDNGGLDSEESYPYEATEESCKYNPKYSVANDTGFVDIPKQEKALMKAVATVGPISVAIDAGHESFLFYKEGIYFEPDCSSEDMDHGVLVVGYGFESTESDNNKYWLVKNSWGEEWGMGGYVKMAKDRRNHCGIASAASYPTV
# Measurement Protocol: Inhibition of human recombinant cathepsin L by fluorescence assay
Recorded Metric: IC50

Previously resolved entries follow.
- Smiles Data: "COc1ccc2c(c1)C1(CCNCC1)C(=O)N2Cc1cc2cnc(C#N)nc2n1CC(C)(C)C"
  IC50: "> 1 µM"
- Smiles Data: "CCCN1C(=O)NC2(CCN(Cc3cc4cnc(C#N)nc4n3CC(C)(C)C)CC2)C1=O"
  IC50: "> 1 µM"
- Smiles Data: "CC(C)(C)Cn1c(CN2C(=O)NC3(CCNCC3)C2=O)cc2cnc(C#N)nc21"
  IC50: "> 1 µM"

Lab note: molecule `CC(C)(C)Cn1c(CN2CCC3(CC2)NC(=O)NC3=O)cc2cnc(C#N)nc21` tested on Procathepsin L (Homo sapiens, UniProt P07711); recorded IC50 was > 1 µM

Source of measurements: ChEMBL document CHEMBL1140037
